Sourced from patent US10239838B2

// reported pIC50 per item
- Assay Target: human orexin-2 receptor (Homo sapiens (Human), UniProt O43614)
- Sequence (O43614 whole entry): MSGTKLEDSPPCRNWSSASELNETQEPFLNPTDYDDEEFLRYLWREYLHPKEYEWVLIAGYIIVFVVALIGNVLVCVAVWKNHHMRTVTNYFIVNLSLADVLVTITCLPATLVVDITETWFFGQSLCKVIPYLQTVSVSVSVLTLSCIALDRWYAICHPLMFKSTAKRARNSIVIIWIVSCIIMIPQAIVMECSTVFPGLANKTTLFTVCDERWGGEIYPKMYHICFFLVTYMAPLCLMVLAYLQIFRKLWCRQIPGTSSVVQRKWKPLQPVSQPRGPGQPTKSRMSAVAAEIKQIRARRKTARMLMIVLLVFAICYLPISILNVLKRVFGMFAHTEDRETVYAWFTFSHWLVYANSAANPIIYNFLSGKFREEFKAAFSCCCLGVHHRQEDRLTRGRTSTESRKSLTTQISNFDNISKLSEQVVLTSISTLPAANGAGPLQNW
- Measurement Description: FLIPR Ca2+ Flux Assay, orexin-2 receptor
- Measurement Setup: CHO cells expressing the human orexin-2 receptor; agonist 70 pM Ala-6,12 orexin-A; read-out: hOX2R FLIPR IC50
pIC50: −log10 of the molar value.

Structure Smiles | pIC50
CCN(CCc1ccc(C(C)(C)O)cn1)C(=O)c1cccnc1-n1cccn1 | 6.60
CCN(CCc1ccc(C(C)(C)O)cn1)C(=O)c1ccc(OC)nc1C1CC1 | 7.26
CCOc1ccccc1C(=O)N(CC)CCc1ccc(C(C)(C)O)cn1 | 6.26
CCN(CCc1cccc(C(C)(C)O)n1)C(=O)c1ccccc1CC(F)F | 6.85
CCN(CCc1cccc(C(C)(C)O)n1)C(=O)c1ccccc1C1CCC1 | 7.47
CCN(CCc1nccc(C(C)(C)O)n1)C(=O)c1ccccc1-n1nccn1 | 7.24
CCN(CCc1ccc(C(C)(C)O)cn1)C(=O)c1ccccc1-n1nccn1 | 7.30
CCN(CCc1cccc(C(C)(C)O)n1)C(=O)c1cccnc1-c1ccccc1 | 6.99
CCN(CCc1cncc(C(C)(C)O)c1)C(=O)c1ccccc1-n1nccn1 | 6.82
CCN(CCc1ccc(C(C)(C)O)cn1)C(=O)c1cccnc1OCC(F)(F)F | 6.37
CCN(CCc1cccc(C(C)(C)O)n1)C(=O)c1ccccc1OC(F)F | 6.71
CCN(CCc1ccc(C)c(C(C)(C)O)n1)C(=O)c1ccccc1-n1nccn1 | 8.22
CCN(CCc1ccc(C(C)(C)O)cn1)C(=O)c1cccnc1OCC(F)F | 6.47
CCN(CCc1cccc(C(C)(C)O)n1)C(=O)c1ccccc1OCC(F)(F)F | 6.58
CCN(CCc1ccc(C(C)(C)O)cn1)C(=O)c1ccc(F)cc1-n1nccn1 | 7.59
CCN(CCc1ccc(C(C)(C)O)cn1)C(=O)c1cccnc1-c1ccccc1 | 6.48
CCN(CCc1ccc(C(C)(C)O)cn1)C(=O)c1ccccc1CC(F)(F)F | 6.36
CCN(CCc1ccnc(C(C)(C)O)c1)C(=O)c1ccccc1-n1nccn1 | 6.91

---

- Assay Target: human orexin-2 receptor (Homo sapiens (Human))
- Measurement Description: FLIPR Ca2+ Flux Assay, orexin-2 receptor
- Measurement Setup: CHO cells expressing the human orexin-2 receptor; agonist 70 pM Ala-6,12 orexin-A; read-out: hOX2R FLIPR IC50
pIC50: −log10 of the molar value.
Classification field: true (1) = pIC50 at or over 7; false (0) = pIC50 under 7.

Compound | Class Assignment
CCN(CCc1ccc(C(C)(C)O)cn1)C(=O)c1ccccc1OC(F)(F)F [Example 50] | false (0)
CCOc1ncccc1C(=O)N(CC)CCc1cccc(C(C)(C)O)n1 [Example 6] | false (0)
CCN(CCc1cccc(C(C)(C)O)n1)C(=O)c1ccccc1OC(F)(F)F [Example 8] | true (1)

---

// reported IC50 per item
- Assay Target: human orexin-2 receptor (Homo sapiens (Human))
- Measurement Description: FLIPR Ca2+ Flux Assay, orexin-2 receptor
- Measurement Setup: CHO cells expressing the human orexin-2 receptor; agonist 70 pM Ala-6,12 orexin-A; read-out: hOX2R FLIPR IC50

Molecule | Assay Target | Unit | IC50
CCN(CCc1ccc(C(C)(C)O)cn1)C(=O)c1ccccc1C1CC1 | human orexin-2 receptor (Homo sapiens (Human)) | nM | 244
CCN(CCc1cccc(C(C)(C)O)n1)C(=O)c1ccccc1-n1nccn1 | human orexin-2 receptor (Homo sapiens (Human)) | nM | 15
CCN(CCc1ccc(C(C)(C)O)cn1)C(=O)c1ccccc1C1CC1(F)F (stereo not drawn) | human orexin-2 receptor (Homo sapiens (Human)) | nM | 38
CCN(CCc1cccc(C(C)(C)O)n1)C(=O)c1cccnc1OCC(F)(F)F | human orexin-2 receptor (Homo sapiens (Human)) | nM | 69
CCN(CCc1ccnc(C(C)(C)O)n1)C(=O)c1ccccc1-n1nccn1 | human orexin-2 receptor (Homo sapiens (Human)) | nM | 74
CCN(CCc1nccc(C(C)O)n1)C(=O)c1ccccc1-n1nccn1 (stereo not drawn) | human orexin-2 receptor (Homo sapiens (Human)) | nM | 165
CCN(CCc1cccc(C(C)(C)O)n1)C(=O)c1ccccc1-c1ncccn1 | human orexin-2 receptor (Homo sapiens (Human)) | nM | 16
CCN(CCc1cccc(C(C)(C)O)n1)C(=O)c1ccccc1C1CC1(F)F (stereo not drawn) | human orexin-2 receptor (Homo sapiens (Human)) | nM | 14
CCN(CCc1cccc(C(C)(C)O)n1)C(=O)c1cccnc1OCC(F)F | human orexin-2 receptor (Homo sapiens (Human)) | nM | 95

---

- Assay Target: human orexin-2 receptor (Homo sapiens (Human))
- Measurement Description: FLIPR Ca2+ Flux Assay, orexin-2 receptor
- Measurement Setup: CHO cells expressing the human orexin-2 receptor; agonist 70 pM Ala-6,12 orexin-A; read-out: hOX2R FLIPR IC50
// classify: if (IC50 < 0.1 µM) satisfied else not satisfied

Structure Smiles | Class Assignment
CCN(CCc1cccc(C(C)(C)O)n1)C(=O)c1ccccc1N1CCCC1 | satisfied
CCN(CCc1ncc(C(C)(C)O)cn1)C(=O)c1ccccc1-n1nccn1 | satisfied
CCN(CCc1cccc(C(C)(C)O)n1)C(=O)c1ccccc1-n1cccn1 | satisfied
CCN(CCc1cccc(C(C)(C)O)n1)C(=O)c1ccccc1-n1ncnn1 | not satisfied
CCN(CCc1ccc(C(C)(C)O)cn1)C(=O)c1ccccc1C1CCC1 | satisfied
CCCc1ccccc1C(=O)N(CC)CCc1cccc(C(C)(C)O)n1 | not satisfied
CCN(CCc1cccc(C(C)(C)O)n1)C(=O)c1ccccc1OCC(F)F | not satisfied
CCN(CCc1cc(C(C)(C)O)ccn1)C(=O)c1ccccc1-n1nccn1 | satisfied
CCOc1ccccc1C(=O)N(CC)CCc1cccc(C(C)(C)O)n1 | satisfied
CCN(CCc1cccc(C(C)(C)O)n1)C(=O)c1cccnc1OC(C)C | not satisfied
